Origin of the recorded values: paper PMC12362582

Assay: EPSA (supercritical fluid chromatography) and EPSA-to-TPSA ratio
Type: physicochemical
Conditions: supercritical fluid chromatographic (SFC) system; SFC-based polarity descriptor
property-measured: EPSA (A^2)
Write it as a number; the unit A^2 goes unstated.

Cc1ncsc1-c1ccc([C@H](CCCCCN2CCC(c3ccc4c(c3)n(C3CCCC3)c3nc(=O)c5c(Br)cccc5n43)CC2)NC(=O)[C@@H]2C[C@@H](O)CN2C(=O)[C@@H](NC(=O)C2(F)CC2)C(C)(C)C)cc1 [A5-1]: 136

Would you kindly look at the next entry?
Request: Entry Cc1ncsc1-c1ccc([C@H](COC(C)(C)CN2CCC(c3ccc4c(c3)n(C3CCCC3)c3nc(=O)c5c(Br)cccc5n43)CC2)NC(=O)[C@@H]2C[C@@H](O)CN2C(=O)[C@@H](NC(=O)C2(F)CC2)C(C)(C)C)cc1 [B-4] has what EPSA?
Response: 127

====

Test: In vivo pharmacokinetics in mice (oral bioavailability, clearance)
Details: mouse clearance as % of hepatic blood flow
property-measured: Mouse CL (% Qh)
Write it as a number; the unit % Qh goes unstated.

Cc1ncsc1-c1ccc([C@H](CC[C@@H](C)CCN2CCC(c3ccc4c(c3)n(C3CCCC3)c3nc(=O)c5c(Br)cccc5n43)CC2)NC(=O)[C@@H]2C[C@@H](O)CN2C(=O)[C@@H](NC(=O)C2(F)CC2)C(C)(C)C)cc1: 3.9

Request: Entry Cc1ncsc1-c1ccc([C@H](COC(C)(C)CN2CCC(c3ccc4c(c3)n(C3CCCC3)c3nc(=O)c5c(Br)cccc5n43)CC2)NC(=O)[C@@H]2C[C@@H](O)CN2C(=O)[C@@H](NC(=O)C2(F)CC2)C(C)(C)C)cc1 has what Mouse CL (% Qh)?
Response: 6.0

Request: Note, next up: Cc1ncsc1-c1ccc([C@H](CO[C@@H](C)CN2CCC(c3ccc4c(c3)n(C3CCCC3)c3nc(=O)c5c(Br)cccc5n43)CC2)NC(=O)[C@@H]2C[C@@H](O)CN2C(=O)[C@@H](NC(=O)C2(F)CC2)C(C)(C)C)cc1
Response: 7.1

Request: Note, next up: Cc1ncsc1-c1ccc([C@H](COCCN2CCC(c3ccc4c(c3)n(C3CCCC3)c3nc(=O)c5c(Br)cccc5n43)CC2)NC(=O)[C@@H]2C[C@@H](O)CN2C(=O)[C@@H](NC(=O)C2(F)CC2)C(C)(C)C)cc1
Response: 8.5

====

Experiment: log kW IAM (IAM.PC.DD2 column) and derived Δlog kW IAM polarity
Assay type: physicochemical
Details: IAM.PC.DD2 column, extrapolated, pH 7
Collected log kW^IAM values appear next to each entry.

Past entries and their recorded results:
Cc1ncsc1-c1ccc([C@@H](CC[C@@H](C)CCN2CCC(c3ccc4c(c3)n(C3CCCC3)c3nc(=O)c5c(Br)cccc5n43)CC2)NC(=O)[C@@H]2C[C@@H](O)CN2C(=O)[C@@H](NC(=O)C2(F)CC2)C(C)(C)C)cc1: 3.31
Cc1ncsc1-c1ccc([C@H](COCCN2CCC(c3ccc4c(c3)n(C3CCCC3)c3nc(=O)c5c(Br)cccc5n43)CC2)NC(=O)[C@@H]2C[C@@H](O)CN2C(=O)[C@@H](NC(=O)C2(F)CC2)C(C)(C)C)cc1: 1.97
Cc1ncsc1-c1ccc([C@H](CO[C@@H](C)CN2CCC(c3ccc4c(c3)n(C3CCCC3)c3nc(=O)c5c(Br)cccc5n43)CC2)NC(=O)[C@@H]2C[C@@H](O)CN2C(=O)[C@@H](NC(=O)C2(F)CC2)C(C)(C)C)cc1: 2.06

Would you kindly look at the next entry?
Request: Entry Cc1ncsc1-c1ccc([C@H](CCCCCN2CCC(c3ccc4c(c3)n(C3CCCC3)c3nc(=O)c5c(Br)cccc5n43)CC2)NC(=O)[C@@H]2C[C@@H](O)CN2C(=O)[C@@H](NC(=O)C2(F)CC2)C(C)(C)C)cc1 has what log kW^IAM?
Response: 3.00
